# System: NRG-mice bearing LNCaP tumors
# TEST METHOD NOTES: Biodistribution (and PET/SPECT imaging) in NRG-mice bearing LNCaP tumors
# Assay type: in vivo
# CONDITION CONTEXT: 24 h p.i., Avg
*1 amine or outer side, *2 acyl side, *3 side chain or, on linkers, in order; H or OH if unused. Where a SMILES comes first, the peptide text is derived from it. [ ]: non-standard residue; d: D form. The star is where a group is joined. ξ: configuration not given here. ξLys(Nα-CO-ξAad) = O=C(O)CCCC(NC(=O)NC(CCCCN*)C(=O)O)C(=O)O; Butanoyl(4-(4-NO2Ph)) = O=C(CCCc1ccc([N+](=O)[O-])cc1)*; DOTA = O=C(O)CN1CCN(CC(=O)O)CCN(CC(=O)*)CCN(CC(=O)O)CC1; ξAla(9-anthryl) = NC(Cc1c2ccccc2cc2ccccc12)C(=O)O; X1 = O=C(C1CCC(CN[*:1])CC1)[*:2]; ξK = NCCCCC(N)C(=O)O
TEST READOUT: Biodistribution: Spleen (% ID/g)
Return type: number; implicit unit % ID/g.

Enquiry: Given O=C([O-])CN1CCN(CC(=O)[O-])CCN(CC(=O)NCCCCC(NC(=O)CNC(=O)CCCc2ccc([N+](=O)[O-])cc2)C(=O)NCC(=O)NCC2CCC(C(=O)NC(Cc3c4ccccc4cc4ccccc34)C(=O)NCCCCC(NC(=O)NC(CCCC(=O)O)C(=O)O)C(=O)O)CC2)CCN(CC(=O)[O-])CC1.[177Lu+3] (stereo not shown) [^177Lu-CCZ02017] ({Butanoyl(4-(4-NO2Ph))}-G[ξK](DOTA)G[X1][ξAla(9-anthryl)]-{ξLys(Nα-CO-ξAad)}) , state its recorded Biodistribution: Spleen.
Return: 0.35

* * *

# System: NRG-mice bearing LNCaP tumors
# TEST METHOD NOTES: Biodistribution (and PET/SPECT imaging) in NRG-mice bearing LNCaP tumors
# Format: in vivo
# CONDITION CONTEXT: 3 h p.i., Avg
*1 amine or outer side, *2 acyl side, *3 side chain or, on linkers, in order; H or OH if unused. Where a SMILES comes first, the peptide text is derived from it. [ ]: non-standard residue; d: D form. The star is where a group is joined. ξ: configuration not given here. ξLys(Nα-CO-ξAad) = O=C(O)CCCC(NC(=O)NC(CCCCN*)C(=O)O)C(=O)O; Butanoyl(4-(4-NO2Ph)) = O=C(CCCc1ccc([N+](=O)[O-])cc1)*; DOTA = O=C(O)CN1CCN(CC(=O)O)CCN(CC(=O)*)CCN(CC(=O)O)CC1; Butanoyl(4-(4-MeO-phenyl)) = COc1ccc(CCCC(=O)*)cc1; ξAla(9-anthryl) = NC(Cc1c2ccccc2cc2ccccc12)C(=O)O; X2 = O=C(NC(CCCCN*)C(=O)O)NC(CC(F)C(=O)O)C(=O)O; X1 = O=C(C1CCC(CN[*:1])CC1)[*:2]; ξK = NCCCCC(N)C(=O)O
TEST READOUT: Biodistribution: Adrenal gland
The reply should consist of the numeric value with the unit placed after it.

Enquiry: Given O=C([O-])CN1CCN(CC(=O)[O-])CCN(CC(=O)NCCCCC(NC(=O)CNC(=O)CCCc2ccc([N+](=O)[O-])cc2)C(=O)NCC(=O)NCC2CCC(C(=O)NC(Cc3c4ccccc4cc4ccccc34)C(=O)NCCCCC(NC(=O)NC(CCCC(=O)O)C(=O)O)C(=O)O)CC2)CCN(CC(=O)[O-])CC1.[225Ac+3] (stereo not drawn) [^225Ac-CCZ02017] ({Butanoyl(4-(4-NO2Ph))}-G[ξK](DOTA)G[X1][ξAla(9-anthryl)]-{ξLys(Nα-CO-ξAad)}) , state its recorded Biodistribution: Adrenal gland.
Return: 3.61 % ID/g

Enquiry: Another compound to check: COc1ccc(CCCC(=O)NCC(=O)NC(CCCCNC(=O)CN2CCN(CC(=O)[O-])CCN(CC(=O)[O-])CCN(CC(=O)[O-])CC2)CC(=O)NCC2CCC(C(=O)NC(Cc3c4ccccc4cc4ccccc34)C(=O)NCCCCC(NC(=O)NC(CC(F)C(=O)O)C(=O)O)C(=O)O)CC2)cc1.[177Lu+3] (stereo not drawn) [^177Lu-CCZ02019]
Return: 2.79 % ID/g

Enquiry: Another compound to check: COc1ccc(CCCC(=O)NCC(=O)NC(CCCCNC(=O)CN2CCN(CC(=O)[O-])CCN(CC(=O)[O-])CCN(CC(=O)[O-])CC2)C(=O)NCC(=O)NCC2CCC(C(=O)NC(Cc3c4ccccc4cc4ccccc34)C(=O)NCCCCC(NC(=O)NC(CCCC(=O)O)C(=O)O)C(=O)O)CC2)cc1.[68Ga+3] (stereo not drawn) [^68Ga-CCZ02009] ({Butanoyl(4-(4-MeO-phenyl))}-G[ξK](DOTA)G[X1][ξAla(9-anthryl)]-{ξLys(Nα-CO-ξAad)})
Return: 4.34 % ID/g

Enquiry: Another compound to check: O=C([O-])CN1CCN(CC(=O)[O-])CCN(CC(=O)NCCCCC(NC(=O)CNC(=O)CCCc2ccc([N+](=O)[O-])cc2)C(=O)NCC(=O)NCC2CCC(C(=O)NC(Cc3c4ccccc4cc4ccccc34)C(=O)NCCCCC(NC(=O)NC(CC(F)C(=O)O)C(=O)O)C(=O)O)CC2)CCN(CC(=O)[O-])CC1.[68Ga+3] (stereo not drawn) [^68Ga-CCZ02025] ({Butanoyl(4-(4-NO2Ph))}-G[ξK](DOTA)G[X1][ξAla(9-anthryl)]-X2)
Return: 4.26 % ID/g

Enquiry: Another compound to check: O=C([O-])CN1CCN(CC(=O)[O-])CCN(CC(=O)NCCCCC(NC(=O)CNC(=O)CCCc2ccc([N+](=O)[O-])cc2)C(=O)NCC(=O)NCC2CCC(C(=O)NC(Cc3c4ccccc4cc4ccccc34)C(=O)NCCCCC(NC(=O)NC(CCCC(=O)O)C(=O)O)C(=O)O)CC2)CCN(CC(=O)[O-])CC1.[177Lu+3] (stereo not drawn) [^177Lu-CCZ02017] ({Butanoyl(4-(4-NO2Ph))}-G[ξK](DOTA)G[X1][ξAla(9-anthryl)]-{ξLys(Nα-CO-ξAad)})
Return: 3.41 % ID/g

Enquiry: Another compound to check: COc1ccc(CCCC(=O)NCC(=O)NC(CCCCNC(=O)CN2CCN(CC(=O)[O-])CCN(CC(=O)[O-])CCN(CC(=O)[O-])CC2)CC(=O)NCC2CCC(C(=O)NC(Cc3c4ccccc4cc4ccccc34)C(=O)NCCCCC(NC(=O)NC(CCCC(=O)O)C(=O)O)C(=O)O)CC2)cc1.[68Ga+3] (stereo not drawn) [^68Ga-CCZ02015]
Return: 3.36 % ID/g

Reference for the values: patent US20250186627A1
